Species: Rattus norvegicus
Test: Open TG-GATES - Regimen: Daily Repeat
Assay type: toxicity, organism-based, Sprague-Dawley
Design: regimen Daily Repeat, gender Male, age 6 weeks
Details: in vivo, po, 1000 mg/kg, […], tissue Blood, route gavage, dose level High, time 14 day
Provide the recorded Bas for the entries that follow.
Could you give me the number in %? Just the number is fine.

## Input State the recorded Bas for this entry: CNC(=C[N+](=O)[O-])NCCSCc1ccc(CN(C)C)o1 [RANITIDINE]
## Output 0

## Input Would you mind telling me what Bas value was observed for COC(=O)C1=C(C)NC(C)=C(C(=O)OC)C1c1ccccc1[N+](=O)[O-] [NIFEDIPINE] ?
## Output 0.4

## Input Could you share which Bas value was measured for CCOc1ccc(NC(C)=O)cc1 [PHENACETIN] ?
## Output 0.2

## Input Which Bas value is on record for O=C(OC[C@H]1O[C@@H](OC(=O)c2cc(O)c(O)c(OC(=O)c3cc(O)c(O)c(O)c3)c2)[C@H](OC(=O)c2cc(O)c(O)c(OC(=O)c3cc(O)c(O)c(O)c3)c2)[C@@H](OC(=O)c2cc(O)c(O)c(OC(=O)c3cc(O)c(O)c(O)c3)c2)[C@@H]1OC(=O)c1cc(O)c(O)c(OC(=O)c2cc(O)c(O)c(O)c2)c1)c1cc(O)c(O)c(OC(=O)c2cc(O)c(O)c(O)c2)c1 [TANNIC ACID] ?
## Output 0

## Input Returns the measured Bas for the input molecule. Input: Cc1nnc2n1-c1ccc(Cl)cc1C(c1ccccc1Cl)=NC2 [TRIAZOLAM]
## Output 0.4

## Input Fill in: Bas of CN/C(=N/CCSCc1nc[nH]c1C)NC#N [CIMETIDINE] is ___
## Output 0

====

Organism: Rattus norvegicus
Experiment: Open TG-GATES - Regimen: Single
Format: toxicity, organism-based, Sprague-Dawley
Design: regimen Single, gender Male, age 6 weeks
Details: in vivo, po, 100 mg/kg, 6 h, tissue Blood, route gavage, dose level Low
Endpoint name: Ret (%)
Form entry: value (%) — number only.

## Input Would you mind telling me what Ret value was observed for CNC(=C[N+](=O)[O-])NCCSCc1ccc(CN(C)C)o1 ?
## Output 7.3

## Input // query Ret value for entry COC(=O)C1=C(C)NC(C)=C(C(=O)OC)C1c1ccccc1[N+](=O)[O-]
## Output 9.2

## Input For the molecule shown here, Cc1nnc2n1-c1ccc(Cl)cc1C(c1ccccc1Cl)=NC2 , give the reported Ret.
## Output 9.3

## Input Form field: reported Ret of CN/C(=N/CCSCc1nc[nH]c1C)NC#N
## Output 7.8

## Input Could you share which Ret value was measured for O=C(OC[C@H]1O[C@@H](OC(=O)c2cc(O)c(O)c(OC(=O)c3cc(O)c(O)c(O)c3)c2)[C@H](OC(=O)c2cc(O)c(O)c(OC(=O)c3cc(O)c(O)c(O)c3)c2)[C@@H](OC(=O)c2cc(O)c(O)c(OC(=O)c3cc(O)c(O)c(O)c3)c2)[C@@H]1OC(=O)c1cc(O)c(O)c(OC(=O)c2cc(O)c(O)c(O)c2)c1)c1cc(O)c(O)c(OC(=O)c2cc(O)c(O)c(O)c2)c1 ?
## Output 10.4

====

Species: Rattus norvegicus
Assay: Open TG-GATES - Regimen: Single
Assay type: toxicity, organism-based, Sprague-Dawley
Set-up: regimen Single, gender Male, age 6 weeks
Settings: in vivo, po, 100 mg/kg, 6 h, route gavage, dose level Low
Provide the recorded TERMINAL_BW for the entries that follow.
Numbers only here, please. The scale is g.

## Input So what's the measured TERMINAL_BW for this one? O=C(OC[C@H]1O[C@@H](OC(=O)c2cc(O)c(O)c(OC(=O)c3cc(O)c(O)c(O)c3)c2)[C@H](OC(=O)c2cc(O)c(O)c(OC(=O)c3cc(O)c(O)c(O)c3)c2)[C@@H](OC(=O)c2cc(O)c(O)c(OC(=O)c3cc(O)c(O)c(O)c3)c2)[C@@H]1OC(=O)c1cc(O)c(O)c(OC(=O)c2cc(O)c(O)c(O)c2)c1)c1cc(O)c(O)c(OC(=O)c2cc(O)c(O)c(O)c2)c1
## Output 185

## Input Requested field: TERMINAL_BW. Item: COC(=O)C1=C(C)NC(C)=C(C(=O)OC)C1c1ccccc1[N+](=O)[O-]
## Output 203.8

## Input TERMINAL_BW for Cc1nnc2n1-c1ccc(Cl)cc1C(c1ccccc1Cl)=NC2 ?
## Output 189.9

## Input // query TERMINAL_BW value for entry CN/C(=N/CCSCc1nc[nH]c1C)NC#N
## Output 209.9

## Input Bench note: what TERMINAL_BW did CNC(=C[N+](=O)[O-])NCCSCc1ccc(CN(C)C)o1 show?
## Output 216.3
